Tested on: broad leaf weeds (Lindernia pyxidaria and Monochoria vaginalis)
Experiment: Test Example 1: herbicidal effect test by treatment of rice paddy soil (immediately after seeding)
Format: in vivo
Settings: Monochoria vaginalis, 120 g/10a active ingredient, dry weight vs untreated area, 14 days after treatment
# if measured Herbicidal rate (%) Monochoria vaginalis < 90%: 1  # else: -1

Below, 5 compounds whose answers are already recorded.
compound	target system	assigned category
Cc1c(Cc2ccccc2NS(=O)(=O)C(F)(F)F)c(=O)on1CCOCc1ccccc1 [Compound 1-238]	broad leaf weeds (Lindernia pyxidaria and Monochoria vaginalis)	1
CC(C)n1oc(=O)c(Cc2ccccc2N(S(=O)(=O)C(F)(F)F)S(=O)(=O)C(F)(F)F)c1C1CC1 [Compound 1-84]	broad leaf weeds (Lindernia pyxidaria and Monochoria vaginalis)	1
Cc1c(Cc2ccccc2NS(=O)(=O)C(F)(F)F)c(=O)on1CC1(C)CC1 [Compound 1-145]	broad leaf weeds (Lindernia pyxidaria and Monochoria vaginalis)	-1
CCC(CC)Cn1oc(=O)c(Cc2ccccc2N(S(=O)(=O)C(F)(F)F)S(=O)(=O)C(F)(F)F)c1C [Compound 1-973]	broad leaf weeds (Lindernia pyxidaria and Monochoria vaginalis)	1
Cc1c(Cc2ccccc2NS(=O)(=O)C(F)(F)F)c(=O)on1Cc1cccc(C(F)(F)F)c1 [Compound 1-193]	broad leaf weeds (Lindernia pyxidaria and Monochoria vaginalis)	-1

Strictly below 90%: is that where Herbicidal rate (%) Monochoria vaginalis of CSCCn1oc(=O)c(Cc2ccccc2NS(=O)(=O)C(F)(F)F)c1C [Compound 1-162] sits?
-1

Strictly below 90%: is that where Herbicidal rate (%) Monochoria vaginalis of Cc1c(Cc2cc(F)ccc2NS(=O)(=O)C(F)(F)F)c(=O)on1CC(C)C [Compound 1-28] sits?
-1

Strictly below 90%: is that where Herbicidal rate (%) Monochoria vaginalis of CCCC(C)n1oc(=O)c(Cc2ccccc2NS(=O)(=O)C(F)(F)F)c1C (stereo not shown) [Compound 1-109] sits?
-1

Strictly below 90%: is that where Herbicidal rate (%) Monochoria vaginalis of Cc1c(Cc2ccccc2NS(=O)(=O)C(F)(F)F)c(=O)on1CC1CCCO1 (stereo not shown) [Compound 1-230] sits?
1

* * *

// reported Herbicidal rate (%) Scirpus juncoides per item
System: Scirpus juncoides
Experiment: Test Example 2: herbicidal effect test by treatment during growing period in paddy rice cultivation (seven days after seeding)
Type: in vivo
Conditions: 120 g/10a active ingredient, assessed 14 days after treatment, dry weight vs untreated area
Number in %, nothing else.

The following molecules have reported results that may help.
molecule	Herbicidal rate (%) Scirpus juncoides
CCC(C)n1oc(=O)c(Cc2ccccc2N(C(=O)c2ccc(C)cc2)S(=O)(=O)C(F)(F)F)c1C (stereo not shown) [Compound 1-494]	90
CCN(CC)C(=O)n1oc(=O)c(Cc2ccccc2N(C(=O)OCC(C)C)S(=O)(=O)C(F)(F)F)c1C [Compound 1-679]	40
Cc1c(Cc2ccccc2N(S(C)(=O)=O)S(=O)(=O)C(F)(F)F)c(=O)on1CC(C)C [Compound 1-892]	90
Cc1c(Cc2ccccc2NS(=O)(=O)C(F)(F)F)c(=O)on1CCC(C)(C)C [Compound 1-116]	90
CCCCC(CC)Cn1oc(=O)c(Cc2ccccc2N(S(=O)(=O)C(F)(F)F)S(=O)(=O)C(F)(F)F)c1C (stereo not shown) [Compound 1-980]	80
Cc1c(Cc2ccccc2N(C(=O)CC(C)C)S(=O)(=O)C(F)(F)F)c(=O)on1CC(C)(C)C [Compound 1-355]	90
CCC(C)Cn1oc(=O)c(Cc2ccccc2N(C(C)=O)S(=O)(=O)C(F)(F)F)c1C (stereo not shown) [Compound 1-300]	80
COc1ccc(Cn2oc(=O)c(Cc3ccccc3NS(=O)(=O)C(F)(F)F)c2C)cc1 [Compound 1-195]	80

Specify reported Herbicidal rate (%) Scirpus juncoides for the molecule shown: Cc1c(Cc2ccccc2NS(=O)(=O)C(F)(F)F)c(=O)on1CC(F)(F)F [Compound 1-134]
80

Specify reported Herbicidal rate (%) Scirpus juncoides for the molecule shown: Cc1c(Cc2ccccc2N(C(=O)OCC(C)C)S(=O)(=O)C(F)(F)F)c(=O)on1C [Compound 1-666]
90

Specify reported Herbicidal rate (%) Scirpus juncoides for the molecule shown: Cc1c(Cc2ccccc2NS(=O)(=O)C(F)(F)F)c(=O)on1Cc1ccc(Br)cc1 [Compound 1-187]
70

Specify reported Herbicidal rate (%) Scirpus juncoides for the molecule shown: Cc1ccc(Cn2oc(=O)c(Cc3ccccc3N(S(=O)(=O)C(F)(F)F)S(=O)(=O)C(F)(F)F)c2C)cc1 [Compound 1-1018]
80

Specify reported Herbicidal rate (%) Scirpus juncoides for the molecule shown: Cc1c(Cc2ccccc2N(S(=O)(=O)C(F)(F)F)S(=O)(=O)C(F)(F)F)c(=O)on1CCC(C)(C)C [Compound 1-975]
80

Attribution: patent US11109593B2
